Target: dopamine D2 receptor (Homo sapiens, UniProt P14416)
Construct: expressed in transfected cells; host or cells: CHO-hD2L cells (membrane preparation)
Sequence (P14416 whole entry): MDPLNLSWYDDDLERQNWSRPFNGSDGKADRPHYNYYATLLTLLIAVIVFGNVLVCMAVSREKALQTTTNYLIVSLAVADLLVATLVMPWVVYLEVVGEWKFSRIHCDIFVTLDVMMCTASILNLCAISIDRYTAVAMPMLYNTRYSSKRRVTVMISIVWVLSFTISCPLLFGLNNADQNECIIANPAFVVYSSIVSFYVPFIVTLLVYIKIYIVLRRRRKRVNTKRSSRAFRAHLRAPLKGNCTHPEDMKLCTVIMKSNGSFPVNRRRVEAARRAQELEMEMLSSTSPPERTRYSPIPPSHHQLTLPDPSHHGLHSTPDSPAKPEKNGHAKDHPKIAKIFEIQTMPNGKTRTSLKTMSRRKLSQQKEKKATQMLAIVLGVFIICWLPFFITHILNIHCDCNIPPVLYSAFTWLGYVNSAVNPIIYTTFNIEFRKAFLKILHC
Test: Dopamine D2 receptor-binding assay ([3H]Spiperone displacement)
Conditions: inhibition of binding of 0.4 nM [3H]Spiperone, CHO-hD2L film product, room temperature 120 minutes; read-out: IC50 (affinity to D2 receptor)
Structures can show the parent of a compound that is named as a salt.
measuredAttribute: pIC50
Just the number, please; pIC50 means minus log10 of the concentration in mol/L.

// solved cases for pIC50 follow
compound="Cc1ccc2onc(N3CCN(CCCCOc4ccc5c(c4)NC(=O)CC5)CC3)c2c1 [I-7, hydrochloride]" studysystem="dopamine D2 receptor (Homo sapiens, UniProt P14416)" measuredattribute=pIC50 measured=6.54
compound="O=C1CCc2ccc(OCCCCN3CCN(c4noc5cc(O)ccc45)CC3)cc2N1 [I-8, hydrochloride]" studysystem="dopamine D2 receptor (Homo sapiens, UniProt P14416)" measuredattribute=pIC50 measured=6.80
compound="COc1cccc2snc(N3CCN(CCCCOc4ccc5c(c4)NC(=O)CC5)CC3)c12 [III-7, hydrochloride]" studysystem="dopamine D2 receptor (Homo sapiens, UniProt P14416)" measuredattribute=pIC50 measured=6.77
compound="O=C1CCc2ccc(OCCCCN3CCN(c4noc5cc(Cl)ccc45)CC3)cc2N1 [I-1, hydrochloride]" studysystem="dopamine D2 receptor (Homo sapiens, UniProt P14416)" measuredattribute=pIC50 measured=7.59
compound="O=C1CCc2ccc(OCCCCN3CCC(c4noc5cc(F)ccc45)CC3)cc2N1 [II-1, hydrochloride]" studysystem="dopamine D2 receptor (Homo sapiens, UniProt P14416)" measuredattribute=pIC50 measured=8.25

Entry COc1ccc2c(N3CCN(CCCCOc4ccc5c(c4)NC(=O)CC5)CC3)nsc2c1 [III-4, hydrochloride] has what pIC50?
7.75

Param item = O=C1CCc2ccc(OCCCCN3CCC(c4noc5cc(O)c(O)cc45)CC3)cc2N1 [II-10, hydrochloride] ; retrieve measured pIC50.
7.34

Consider the compound O=C1CCc2ccc(OCCCCN3CCN(c4noc5cc(C(F)(F)F)ccc45)CC3)cc2N1 [I-5, hydrochloride] and give its measured pIC50.
7.27
